Tested on: ABL1 (human), P00519 [F317I]
Sequence (P00519 whole entry F317I, looked up): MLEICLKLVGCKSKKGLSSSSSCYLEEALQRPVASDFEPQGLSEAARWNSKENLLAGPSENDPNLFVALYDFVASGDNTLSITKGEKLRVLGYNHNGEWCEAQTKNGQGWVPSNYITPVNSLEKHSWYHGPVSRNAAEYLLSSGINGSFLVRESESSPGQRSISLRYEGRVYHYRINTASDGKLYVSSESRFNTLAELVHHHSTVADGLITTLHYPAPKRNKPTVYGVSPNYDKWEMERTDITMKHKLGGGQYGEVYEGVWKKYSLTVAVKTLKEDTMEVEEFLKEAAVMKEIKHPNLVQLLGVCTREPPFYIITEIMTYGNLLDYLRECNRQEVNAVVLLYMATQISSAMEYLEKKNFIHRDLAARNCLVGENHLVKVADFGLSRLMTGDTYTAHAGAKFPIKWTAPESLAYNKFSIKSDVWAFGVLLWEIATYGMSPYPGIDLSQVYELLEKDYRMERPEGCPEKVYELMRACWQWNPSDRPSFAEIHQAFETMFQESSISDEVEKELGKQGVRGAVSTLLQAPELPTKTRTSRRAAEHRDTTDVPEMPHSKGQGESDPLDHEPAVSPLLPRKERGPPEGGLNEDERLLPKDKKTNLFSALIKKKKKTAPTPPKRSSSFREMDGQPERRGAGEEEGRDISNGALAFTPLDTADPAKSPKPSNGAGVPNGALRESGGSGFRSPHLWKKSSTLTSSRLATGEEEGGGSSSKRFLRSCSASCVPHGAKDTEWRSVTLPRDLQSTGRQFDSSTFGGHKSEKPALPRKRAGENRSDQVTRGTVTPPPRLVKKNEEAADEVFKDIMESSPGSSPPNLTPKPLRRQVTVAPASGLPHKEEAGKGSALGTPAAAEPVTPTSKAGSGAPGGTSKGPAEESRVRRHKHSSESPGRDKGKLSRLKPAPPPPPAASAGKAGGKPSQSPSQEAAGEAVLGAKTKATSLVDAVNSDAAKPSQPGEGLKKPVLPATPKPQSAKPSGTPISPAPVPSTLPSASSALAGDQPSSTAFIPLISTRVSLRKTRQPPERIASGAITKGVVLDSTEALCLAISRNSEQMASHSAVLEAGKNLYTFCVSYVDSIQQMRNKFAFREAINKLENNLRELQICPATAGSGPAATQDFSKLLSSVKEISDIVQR
Assay: KINOMEscan competition binding
Conditions: compound 10.0 µM
Catalogue of molecules with associated kinase still bound, per cent of control
Field: numeric (%). Do not append units.

{"structure": "Cc1ccc(C(=O)Nc2cccc(C(F)(F)F)c2)cc1Nc1cncc(C(N)=O)c1", "recorded result": 13}
{"structure": "CNC(=O)c1ccc(Nc2cc(Nc3ccccc3S(=O)(=O)C(C)C)c3cc[nH]c3n2)nc1", "recorded result": 30}
{"structure": "COc1cc2ncn(-c3cc(OCc4ccccc4C(F)(F)F)c(C(N)=O)s3)c2cc1OC", "recorded result": 100}
{"structure": "C=CC(=O)Nc1cccc(Oc2nc(Nc3ccc(N4CCN(C)CC4)cc3OC)ncc2Cl)c1", "recorded result": 100}

For the molecule `COc1cc(C(=O)NC2CCN(C)CC2)ccc1Nc1ncc2c(n1)N(C1CCCC1)CCC(=O)N2C(C)C` , what kinase still bound, per cent of control is on record?
100

For the molecule `COc1cc(N2CCC(C(N)=O)CC2)ccc1Nc1nc(N)c(Cl)c(Nc2ccccc2S(=O)(=O)C(C)C)n1` , what kinase still bound, per cent of control is on record?
4.8

For the molecule `Cn1c(=O)n(-c2ccc(C(C)(C)C#N)cc2)c2c3cc(-c4cnc5ccccc5c4)ccc3ncc21` , what kinase still bound, per cent of control is on record?
100

For the molecule `Cc1n[nH]c2ccc(-c3cncc(OC[C@@H](N)Cc4c[nH]c5ccccc45)c3)cc12` , what kinase still bound, per cent of control is on record?
100

For the molecule `OCCCNc1cc(-c2ccnc(Nc3cccc(Cl)c3)n2)ccn1` , what kinase still bound, per cent of control is on record?
100

For the molecule `CC[C@@H]1C(=O)N(C)c2cnc(Nc3ccc(C(=O)NC4CCN(C)CC4)cc3OC)nc2N1C1CCCC1` , what kinase still bound, per cent of control is on record?
100

For the molecule `CCN(CC)CCCCNc1ncc2c(n1)N(C)C(=O)N(c1c(Cl)c(OC)cc(OC)c1Cl)C2` , what kinase still bound, per cent of control is on record?
100

For the molecule `CCOc1cc(N2CCC(O)CC2)ccc1Nc1ncc2c(n1)N(C)c1ccccc1C(=O)N2C` , what kinase still bound, per cent of control is on record?
30

* * *

Target: RET (human) (UniProt P07949)
Sequence (P07949 whole entry, looked up): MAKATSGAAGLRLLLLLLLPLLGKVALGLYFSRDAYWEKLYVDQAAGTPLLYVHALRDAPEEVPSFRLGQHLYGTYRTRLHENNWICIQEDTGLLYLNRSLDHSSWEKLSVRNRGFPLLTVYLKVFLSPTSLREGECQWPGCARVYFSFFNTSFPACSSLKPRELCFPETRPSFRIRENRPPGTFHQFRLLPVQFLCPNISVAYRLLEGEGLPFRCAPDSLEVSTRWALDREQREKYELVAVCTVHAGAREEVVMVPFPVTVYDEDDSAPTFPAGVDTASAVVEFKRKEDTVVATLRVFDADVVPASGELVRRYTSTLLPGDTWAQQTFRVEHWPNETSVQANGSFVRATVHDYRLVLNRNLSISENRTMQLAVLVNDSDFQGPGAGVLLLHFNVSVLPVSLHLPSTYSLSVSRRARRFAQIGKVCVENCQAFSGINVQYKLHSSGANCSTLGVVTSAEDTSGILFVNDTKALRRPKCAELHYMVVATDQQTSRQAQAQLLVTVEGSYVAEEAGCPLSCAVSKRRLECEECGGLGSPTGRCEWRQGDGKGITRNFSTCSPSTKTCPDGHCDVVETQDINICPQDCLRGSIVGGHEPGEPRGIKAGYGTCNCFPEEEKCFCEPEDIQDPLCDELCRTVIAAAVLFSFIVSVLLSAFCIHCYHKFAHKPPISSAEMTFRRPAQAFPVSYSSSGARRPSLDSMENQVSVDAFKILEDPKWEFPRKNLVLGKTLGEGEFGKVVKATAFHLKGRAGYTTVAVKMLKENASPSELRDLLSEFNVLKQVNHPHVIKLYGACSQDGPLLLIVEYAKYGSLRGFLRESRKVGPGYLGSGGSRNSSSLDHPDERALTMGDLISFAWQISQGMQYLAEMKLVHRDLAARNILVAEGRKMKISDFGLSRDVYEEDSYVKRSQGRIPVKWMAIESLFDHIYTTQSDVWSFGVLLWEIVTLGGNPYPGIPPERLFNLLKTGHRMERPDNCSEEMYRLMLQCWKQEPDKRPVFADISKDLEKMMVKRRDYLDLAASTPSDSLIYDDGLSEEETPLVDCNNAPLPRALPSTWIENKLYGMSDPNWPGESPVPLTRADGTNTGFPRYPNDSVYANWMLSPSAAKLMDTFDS
Assay: KINOMEscan competition binding
Conditions: compound 10.0 µM
experimental endpoint: kinase still bound, per cent of control (%)
Field: numeric (%). Do not append units.

For the molecule CC1=C(C(=O)Nc2cc3cn[nH]c3cc2F)C(c2ccc(C(F)(F)F)cc2)CC(=O)N1 (stereo not drawn) , what kinase still bound, per cent of control is on record?
20

For the molecule `C=CC(=O)Nc1ccc(C(=O)c2sc(Nc3ccc(N4CCN(C)CC4)cc3OC)nc2N)cc1` , what kinase still bound, per cent of control is on record?
100

For the molecule COc1cc(C)c(Sc2cnc(NC(=O)c3ccc(CNC(C)C(C)C)cc3)s2)cc1C(=O)N1CCN(C(C)=O)CC1 (stereo not drawn) , what kinase still bound, per cent of control is on record?
100

For the molecule `CNC(=O)Nc1ccc(-c2nc(N3CC4CCC(C3)O4)c3cnn(C4CCC5(CC4)OCCO5)c3n2)cc1` , what kinase still bound, per cent of control is on record?
91

For the molecule `Cc1cn(-c2cc(C(=O)Nc3ccc(C)c(NC(=O)c4ccno4)c3)cc(C(F)(F)F)c2)cn1` , what kinase still bound, per cent of control is on record?
100

For the molecule `COc1cc(N2CCC(C(N)=O)CC2)ccc1Nc1nc(N)c(Cl)c(Nc2ccccc2S(=O)(=O)C(C)C)n1` , what kinase still bound, per cent of control is on record?
100

* * *

Catalogue of molecules with associated kinase still bound, per cent of control
Molecular target: STK38L (human)
Assay: KINOMEscan competition binding
Conditions: compound 10.0 µM
Field: numeric (%). Do not append units.

{"molecule": "CC1=C(C(=O)Nc2cc3cn[nH]c3cc2F)C(c2ccc(C(F)(F)F)cc2)CC(=O)N1 (stereo not given)", "experimental endpoint": "kinase still bound, per cent of control", "units label": "%", "recorded result": 12}
{"molecule": "Cc1cn(-c2cc(C(=O)Nc3ccc(C)c(NC(=O)c4ccno4)c3)cc(C(F)(F)F)c2)cn1", "experimental endpoint": "kinase still bound, per cent of control", "units label": "%", "recorded result": 100}
{"molecule": "CCN1CCN(Cc2ccc(NC(=O)c3ccc(C)c(/C=C/c4cnc5[nH]ccc5c4OC)c3)cc2C(F)(F)F)CC1", "experimental endpoint": "kinase still bound, per cent of control", "units label": "%", "recorded result": 35}

For the molecule `COc1cc(N2CCC(C(N)=O)CC2)ccc1Nc1nc(N)c(Cl)c(Nc2ccccc2S(=O)(=O)C(C)C)n1` , what kinase still bound, per cent of control is on record?
100

For the molecule `N#C/C(=C1/Nc2ccccc2S1)c1ccnc(NCCc2cccnc2)n1` , what kinase still bound, per cent of control is on record?
100

* * *

Target: EPHA5 (human) (UniProt P54756)
Sequence (P54756 whole entry, looked up): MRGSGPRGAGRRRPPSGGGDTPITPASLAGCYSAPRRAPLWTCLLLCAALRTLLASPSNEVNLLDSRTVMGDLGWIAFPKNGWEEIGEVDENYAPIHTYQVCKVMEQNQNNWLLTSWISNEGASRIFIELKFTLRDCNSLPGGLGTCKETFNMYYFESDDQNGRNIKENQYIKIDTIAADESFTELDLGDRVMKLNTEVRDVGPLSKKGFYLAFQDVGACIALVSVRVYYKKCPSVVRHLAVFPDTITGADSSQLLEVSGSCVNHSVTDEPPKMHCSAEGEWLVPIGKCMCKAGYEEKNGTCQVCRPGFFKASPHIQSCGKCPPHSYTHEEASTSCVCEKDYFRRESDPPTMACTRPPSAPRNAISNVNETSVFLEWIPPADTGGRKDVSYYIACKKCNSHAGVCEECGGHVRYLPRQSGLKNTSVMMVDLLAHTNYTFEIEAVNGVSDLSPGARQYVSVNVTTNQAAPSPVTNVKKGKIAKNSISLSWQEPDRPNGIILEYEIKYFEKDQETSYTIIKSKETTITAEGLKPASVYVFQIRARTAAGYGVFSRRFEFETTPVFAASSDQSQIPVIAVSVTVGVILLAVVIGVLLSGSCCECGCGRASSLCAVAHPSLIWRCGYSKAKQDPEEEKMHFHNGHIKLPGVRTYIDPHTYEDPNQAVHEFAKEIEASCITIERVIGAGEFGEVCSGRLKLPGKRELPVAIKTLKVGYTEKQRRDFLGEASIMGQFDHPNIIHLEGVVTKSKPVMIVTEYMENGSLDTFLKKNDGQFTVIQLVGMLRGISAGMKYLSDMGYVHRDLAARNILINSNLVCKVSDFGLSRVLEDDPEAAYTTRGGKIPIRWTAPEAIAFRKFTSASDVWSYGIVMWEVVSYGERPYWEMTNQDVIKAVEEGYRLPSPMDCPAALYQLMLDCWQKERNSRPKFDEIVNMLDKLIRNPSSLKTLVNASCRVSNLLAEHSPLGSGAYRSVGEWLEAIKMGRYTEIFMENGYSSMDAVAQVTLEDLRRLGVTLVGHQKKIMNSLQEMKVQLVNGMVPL
Assay: KINOMEscan competition binding
Settings: compound 10.0 µM
Catalogue of compounds with associated kinase still bound, per cent of control
Field: numeric (%). Do not append units.

Some solved entries appear below for comparison.
{"compound": "COc1cc(N2CCC(C(N)=O)CC2)ccc1Nc1nc(N)c(Cl)c(Nc2ccccc2S(=O)(=O)C(C)C)n1", "tgt": "EPHA5 (human) (UniProt P54756)", "units label": "%", "kinase still bound, per cent of control": 100}
{"compound": "N#C/C(=C1/Nc2ccccc2S1)c1ccnc(NCCc2cccnc2)n1", "tgt": "EPHA5 (human) (UniProt P54756)", "units label": "%", "kinase still bound, per cent of control": 99}
{"compound": "CCOc1cc(N2CCC(O)CC2)ccc1Nc1ncc2c(n1)N(C)c1ccccc1C(=O)N2C", "tgt": "EPHA5 (human) (UniProt P54756)", "units label": "%", "kinase still bound, per cent of control": 100}

For the compound `COc1cc2c(Nc3ccc(NC(=O)c4ccccc4)cc3)ncnc2cc1OCCCN1CCOCC1` , what kinase still bound, per cent of control is on record?
100

For the compound `O=c1[nH]c2ccccc2n1C1CCN(Cc2ccc(-c3nc4cc5[nH]cnc5cc4nc3-c3ccccc3)cc2)CC1` , what kinase still bound, per cent of control is on record?
100

* * *

Catalogue of molecules with associated kinase still bound, per cent of control
Target: MAP4K4 (human)
Assay: KINOMEscan competition binding
Conditions: compound 10.0 µM

{"molecule": "N#Cc1cc(-c2ccnc(Nc3ccc(-n4cnc(-c5cccnc5)n4)cc3)n2)cc(N2CCOCC2)c1", "kinase still bound, per cent of control": "24%"}
{"molecule": "CCN(CCO)CCCOc1ccc2c(Nc3cc(CC(=O)Nc4cccc(F)c4)[nH]n3)ncnc2c1", "kinase still bound, per cent of control": "98%"}
{"molecule": "CCCS(=O)(=O)Nc1ccc(F)c(C(=O)c2c[nH]c3ncc(Cl)cc23)c1F", "kinase still bound, per cent of control": "64%"}
{"molecule": "N#C/C(=C1/Nc2ccccc2S1)c1ccnc(NCCc2cccnc2)n1", "kinase still bound, per cent of control": "93%"}

For the molecule CC1=C(C(=O)Nc2cc3cn[nH]c3cc2F)C(c2ccc(C(F)(F)F)cc2)CC(=O)N1 (stereo not given) , what kinase still bound, per cent of control is on record?
78%

* * *

Test system: EGFR (human), P00533 [L858R]
Experiment: KINOMEscan competition binding
Details: compound 10.0 µM
Classify: Y when kinase still bound, per cent of control is strictly less than 80%; N when kinase still bound, per cent of control is not.

// below: answered molecules
{"molecule": "O=C1NC(=O)/C(=C/c2ccc3nccc(-c4ccncc4)c3c2)S1", "tgt": "EGFR (human), P00533 [L858R]", "class assignment": "Y"}
{"molecule": "COc1cc(C)c(Sc2cnc(NC(=O)c3ccc(CNC(C)C(C)C)cc3)s2)cc1C(=O)N1CCN(C(C)=O)CC1 (stereo not drawn)", "tgt": "EGFR (human), P00533 [L858R]", "class assignment": "N"}
{"molecule": "COc1ccc(N(C(=O)Oc2c(C)cccc2C)c2ccnc(Nc3ccc(N4CCN(C)CC4)cc3)n2)c(OC)c1", "tgt": "EGFR (human), P00533 [L858R]", "class assignment": "Y"}
{"molecule": "CCN(CC)CCCCNc1ncc2c(n1)N(C)C(=O)N(c1c(Cl)c(OC)cc(OC)c1Cl)C2", "tgt": "EGFR (human), P00533 [L858R]", "class assignment": "N"}

Regarding `O=c1[nH]c2ccccc2n1C1CCN(Cc2ccc(-c3nc4cc5[nH]cnc5cc4nc3-c3ccccc3)cc2)CC1` , kindly confirm whether its kinase still bound, per cent of control is beneath 80%.
Y

Regarding `CCOc1cc(N2CCC(O)CC2)ccc1Nc1ncc2c(n1)N(C)c1ccccc1C(=O)N2C` , kindly confirm whether its kinase still bound, per cent of control is beneath 80%.
N

Regarding `C=CC(=O)Nc1ccc(CN(C(=O)Nc2c(Cl)c(OC)cc(OC)c2Cl)c2cc(Nc3ccc(N4CCN(C)CC4)cc3)ncn2)cc1` , kindly confirm whether its kinase still bound, per cent of control is beneath 80%.
Y
